Tested on: CD19 CAR T cells
Procedure summary: CAR T cell cytokine production (Luminex) under CD19 K562, KIP-1 or CD2/3/28 stimulation
Conditions used: read-out: Suppression of cytokine production, IL-8 (IC50); CD3/CD28 stimulation, 72 h
pIC50: −log10 of the molar value.
Outcome measure: pIC50

Endpoint output: pIC50 of `C[C@H]1C[C@@H]2[C@H]([C@@H](O)C[C@@]3(C)[C@H]2CC[C@]3(O)C(=O)CO)[C@@]2(C)C=CC(=O)C=C12` . Value?
< 5.00

Could you do the same for `Nc1nc2cccc(-c3ccc(CN4CCS(=O)(=O)CC4)cc3)n2n1` , please?
< 5.00

###

Record form. Attribute: IC50. Fill in for each entry.
Tested on: CD19 CAR T cells
Procedure summary: CAR T cell cytokine production (Luminex) under CD19 K562, KIP-1 or CD2/3/28 stimulation
Conditions used: read-out: Suppression of cytokine production, MIP-1b (IC50); CD3/CD28 stimulation, 72 h

Requested read-out IC50, target or system CD19 CAR T cells, entry `Nc1nc2cccc(-c3ccc(CN4CCS(=O)(=O)CC4)cc3)n2n1`
> 10 µM

Now try `C[C@H]1C[C@@H]2[C@H]([C@@H](O)C[C@@]3(C)[C@H]2CC[C@]3(O)C(=O)CO)[C@@]2(C)C=CC(=O)C=C12` .
> 10 µM

###

Test system: CD19 CAR T cells
Procedure summary: CAR T cell cytokine production (Luminex) under CD19 K562, KIP-1 or CD2/3/28 stimulation
Conditions used: read-out: Suppression of cytokine production, IL-2Ra (IC50); KIP-1 stimulation, 72 h
Outcome measure: IC50

Query IC50 on CD19 CAR T cells for `C[C@H]1C[C@@H]2[C@H]([C@@H](O)C[C@@]3(C)[C@H]2CC[C@]3(O)C(=O)CO)[C@@]2(C)C=CC(=O)C=C12`
> 10 µM

How about this compound: `Nc1nc2cccc(-c3ccc(CN4CCS(=O)(=O)CC4)cc3)n2n1`
> 10 µM

###

Procedure summary: in vitro
Conditions used: human, CAR-T cells
Outcome measure: viability at 4 day, 50 nM (%)
Number in %, nothing else.

Which value of viability at 4 day, 50 nM has been reported for `C[C@@H]1C[C@H]2[C@@H]3CCC4=CC(=O)C=C[C@]4(C)[C@@]3(F)[C@@H](O)C[C@]2(C)[C@@]1(O)C(=O)CO` in the records?
65.9

Entry `CC[C@@H]1CN(C(=O)NCC(F)(F)F)C[C@@H]1c1cnc2cnc3[nH]ccc3n12` please
63.2

###

Assignment: determine reported IC50 for the given compounds.
Test system: CD19 CAR T cells
Procedure summary: CAR T cell cytokine production (Luminex) under CD19 K562, KIP-1 or CD2/3/28 stimulation
Conditions used: Homo sapiens, T-cell, 72 h, read-out: Suppression of cytokine production, Perforin (IC50), K562-CD19 stimulation, 72 h

I'm curious: which IC50 was measured for `N#CCC1(n2cc(-c3ncnc4[nH]ccc34)cn2)CN(C2CCN(C(=O)c3ccnc(C(F)(F)F)c3F)CC2)C1` tested on CD19 CAR T cells?
< 0.1 µM

Try this compound too: `O=C(Nc1nc2cccc(-c3ccc(CN4CCS(=O)(=O)CC4)cc3)n2n1)C1CC1`
> 10 µM

Cool, now `C[C@@H]1C[C@H]2[C@@H]3CCC4=CC(=O)C=C[C@]4(C)[C@@]3(F)[C@@H](O)C[C@]2(C)[C@@]1(O)C(=O)CO`
> 10 µM

Also need `CC[C@@H]1CN(C(=O)NCC(F)(F)F)C[C@@H]1c1cnc2cnc3[nH]ccc3n12` , thanks.
< 0.1 µM
